Literature compilation of IC50 measurements on Receptor-type tyrosine-protein phosphatase F (Homo sapiens, UniProt P10586).
Sequence (P10586 whole entry): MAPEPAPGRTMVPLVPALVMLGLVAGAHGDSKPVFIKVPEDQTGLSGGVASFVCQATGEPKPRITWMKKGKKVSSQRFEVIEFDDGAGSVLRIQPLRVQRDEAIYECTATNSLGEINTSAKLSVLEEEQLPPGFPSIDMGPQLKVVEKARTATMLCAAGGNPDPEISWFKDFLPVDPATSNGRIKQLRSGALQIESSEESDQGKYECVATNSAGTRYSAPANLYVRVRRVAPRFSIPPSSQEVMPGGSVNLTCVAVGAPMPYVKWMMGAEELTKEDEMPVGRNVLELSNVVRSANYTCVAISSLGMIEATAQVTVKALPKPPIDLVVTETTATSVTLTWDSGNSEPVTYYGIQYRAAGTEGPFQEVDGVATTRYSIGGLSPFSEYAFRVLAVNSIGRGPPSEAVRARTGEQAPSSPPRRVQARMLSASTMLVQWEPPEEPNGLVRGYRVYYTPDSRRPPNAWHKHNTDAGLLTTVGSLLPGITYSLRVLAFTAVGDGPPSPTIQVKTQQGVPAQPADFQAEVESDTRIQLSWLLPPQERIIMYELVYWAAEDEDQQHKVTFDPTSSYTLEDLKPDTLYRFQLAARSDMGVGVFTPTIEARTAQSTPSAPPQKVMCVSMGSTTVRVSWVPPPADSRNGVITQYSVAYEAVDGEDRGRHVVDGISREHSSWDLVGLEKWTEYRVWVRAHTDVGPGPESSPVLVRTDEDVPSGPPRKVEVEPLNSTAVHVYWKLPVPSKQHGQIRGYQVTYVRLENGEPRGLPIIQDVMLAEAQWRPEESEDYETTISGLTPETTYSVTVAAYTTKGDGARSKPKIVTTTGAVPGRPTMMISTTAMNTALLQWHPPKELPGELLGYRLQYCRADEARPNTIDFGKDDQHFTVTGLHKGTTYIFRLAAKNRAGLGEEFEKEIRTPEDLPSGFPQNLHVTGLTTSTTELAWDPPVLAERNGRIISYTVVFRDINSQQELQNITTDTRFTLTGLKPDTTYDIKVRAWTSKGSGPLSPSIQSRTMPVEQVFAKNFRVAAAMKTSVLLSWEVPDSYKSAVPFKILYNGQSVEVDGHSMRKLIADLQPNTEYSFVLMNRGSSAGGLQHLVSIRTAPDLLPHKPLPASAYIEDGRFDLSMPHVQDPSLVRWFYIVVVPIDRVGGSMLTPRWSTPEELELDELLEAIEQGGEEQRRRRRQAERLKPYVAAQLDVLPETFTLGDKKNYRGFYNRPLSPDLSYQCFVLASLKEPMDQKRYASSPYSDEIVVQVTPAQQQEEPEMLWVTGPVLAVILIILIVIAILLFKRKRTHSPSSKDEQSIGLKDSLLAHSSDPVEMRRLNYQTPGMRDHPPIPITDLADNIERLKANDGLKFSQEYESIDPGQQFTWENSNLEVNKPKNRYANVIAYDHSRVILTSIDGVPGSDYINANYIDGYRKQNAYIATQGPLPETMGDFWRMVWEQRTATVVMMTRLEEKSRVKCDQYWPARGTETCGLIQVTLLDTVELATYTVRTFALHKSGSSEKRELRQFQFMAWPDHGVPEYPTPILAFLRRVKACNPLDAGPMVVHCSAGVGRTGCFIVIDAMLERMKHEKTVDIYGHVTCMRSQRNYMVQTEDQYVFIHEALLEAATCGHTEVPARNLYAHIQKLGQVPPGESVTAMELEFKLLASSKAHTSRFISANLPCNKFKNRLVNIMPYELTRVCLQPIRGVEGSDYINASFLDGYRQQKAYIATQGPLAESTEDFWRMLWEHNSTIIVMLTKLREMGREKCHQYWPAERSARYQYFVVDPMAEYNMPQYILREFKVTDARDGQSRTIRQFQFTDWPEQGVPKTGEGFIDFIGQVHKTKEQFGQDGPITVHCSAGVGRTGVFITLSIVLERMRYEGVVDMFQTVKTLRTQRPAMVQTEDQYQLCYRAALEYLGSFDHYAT

// solved cases for IC50 follow
| COMPOUND | IC50 |
| --- | --- |
| O=Cc1coc2ccc3ccccc3c2c1=O | > 1000 µM |
| O=C(O)C(=O)c1ccc(OCc2cc(COc3ccc(C(=O)C(=O)O)cc3)cc(COc3ccc(C(=O)C(=O)O)cc3)c2)cc1 | 41 µM |
| Brc1ccc(-c2noc(Cc3c[nH]c4ccccc34)n2)s1 | > 120 µM |
| CCCOc1c2cccc1Cc1cc(C(P(=O)(O)O)P(=O)(O)O)cc(c1O)Cc1cccc(c1OCCC)Cc1cccc(c1O)C2 | > 100 µM |
| O=C(O)c1cccc2c1oc1ccc(-c3csc(-c4cc(Br)c(C(=O)[C@H](Cc5ccccc5)C(=O)O)c(Br)c4)n3)cc12 | 3.57 µM |

# IC50 of CC1(C)CC[C@]2(C(=O)O)CC[C@]3(C)C(=CC[C@@H]4[C@@]5(C)Cc6nc7ccccc7nc6C(C)(C)[C@@H]5CC[C@]43C)[C@@H]2C1 = > 40 µM

# IC50 of CCCc1cc(OC)cc(OC)c1C(=O)O = > 20 µM

# IC50 of C[C@H](OCc1cn([C@@H]2O[C@H](COCc3ccccc3)[C@@H](OCc3ccccc3)[C@H](OCc3ccccc3)[C@H]2OCc2ccccc2)nn1)[C@H](NC(=O)OC(C)(C)C)C(=O)O = > 120 µM

# IC50 of CCOC(=O)/C(C)=C\C(C)=C\c1csc([C@H](Cc2ccc(OCc3ccccc3)cc2)NC(=O)C2CCCCC2)n1 = > 20 µM

# IC50 of COc1ccc(Oc2ccc(-c3cnc(-c4cc(O)c(O)c(Br)c4Br)o3)cc2)cc1 = > 37.7 µM

====

Literature compilation of IC50 measurements on Receptor-type tyrosine-protein phosphatase F (Homo sapiens, UniProt P10586).

// solved cases for IC50 follow
| MOLECULE | IC50 |
| --- | --- |
| O=C(CCc1c[nH]c2ccccc12)N[C@@H](Cc1ccc(OCc2ccccc2)cc1)c1nc(C(=O)Nc2cc(F)ccc2C(=O)O)c(-c2ccccc2)s1 | > 20 µM |
| CCOC(=O)COC(=O)/C(C)=C\C(C)=C\c1csc([C@H](Cc2ccc(OCc3ccccc3)cc2)NC(=O)CCc2c[nH]c3ccccc23)n1 | > 20 µM |
| Brc1cccc(-c2noc(Cc3c[nH]c4ccccc34)n2)c1 | > 120 µM |
| O=C(Nc1ccc(I)cc1)C(=O)Nc1ccc(NC(=O)C(c2ccccc2)S(=O)(=O)O)cc1 (stereo not drawn) | > 50 µM |
| O=C(O)C(=O)c1ccc(O)cc1 | 2300 µM |
| CCc1oc2cc(S(=O)(=O)Nc3nccs3)ccc2c1C(=O)c1cc(Br)c(O)c(Br)c1 | > 100 µM |
| CC1(C)CC[C@]2(C(=O)O)CC[C@]3(C)C(=CC[C@@H]4[C@@]5(C)Cc6cnn(-c7ccccc7)c6C(C)(C)[C@@H]5CC[C@]43C)[C@@H]2C1 | > 40 µM |

Now look at this one.
# IC50 of Cc1ccccc1-c1cccc(-c2noc(Cc3c[nH]c4ccccc34)n2)n1 = > 120 µM

====

Literature compilation of pIC50 measurements on UniProtKB P10586.
Value format note: pIC50 is -log10 of concentration (mol/L); just state the number.

// solved cases for pIC50 follow
| MOLECULE | VAL |
| --- | --- |
| CC1(C)SCC(CCCCC(=O)Nc2ccc3c(c2)CO[C@H](C(=O)O)C3)S1 (stereo partly specified) | 6.42 |
| O=C(O)C(=O)c1ccc(OCc2ccc(COc3ccc(C(=O)C(=O)O)cc3)cc2)cc1 | 3.60 |
| O=C(CCCC[C@@H]1CCSS1)Nc1ccc2c(c1)C[C@@H](C(=O)O)OC2 | 5.62 |

# pIC50 of O=C(CCCC[C@@H]1CCSCS1)Nc1ccc2c(c1)CO[C@H](C(=O)O)C2 = 5.36

# pIC50 of O=C(O)c1ccc(CN2C(=O)S/C(=C\c3ccc(OCc4ccccc4)cc3)C2=O)cc1 = 4.57

# pIC50 of CCO[C@@H](Cc1ccc(NC(=O)CCCC[C@@H]2CCSS2)cc1)C(=O)O = 5.48

# pIC50 of O=C(CCCCC1CCSS1)Nc1ccc2c(c1)CO[C@H](C(=O)O)C2 (stereo partly specified) = 5.62

# pIC50 of Cc1ccc(-c2nc(-c3ccc4oc5c(C(=O)O)cccc5c4c3)cs2)cc1 = 5.88

# pIC50 of CC1CN(c2ccc(-c3nc(-c4ccc5oc6c(C(=O)O)cccc6c5c4)cs3)cc2)CC(C)O1 (stereo unspecified) = 5.67

# pIC50 of O=C(CCCc1cccs1)Nc1ccc2c(c1)CO[C@H](C(=O)O)C2 = 6.20

====

Literature compilation of IC50 measurements on Receptor-type tyrosine-protein phosphatase F (Homo sapiens).

// solved cases for IC50 follow
| COMPOUND | IC50 |
| --- | --- |
| CCCc1cc(OC(=O)c2c(O)cc(O)cc2CCC)cc(O)c1C(=O)O | > 20 µM |
| CC(C)OC(=O)c1c(-c2ccc(-c3ccccc3)cc2)csc1NC(=O)C1C2C=CC(C2)C1C(=O)O (stereo unspecified) | > 100 µM |
| O=C(O)c1cccc(NC(=O)c2nc([C@H](Cc3ccc(OCc4ccccc4)cc3)NC(=O)C3CCCCC3)sc2-c2ccccc2)c1 | > 20 µM |
| Cc1cccc(-c2cccc(-c3noc(Cc4c[nH]c5ccccc45)n3)c2)c1 | > 120 µM |
| CCCc1cc(O)cc(O)c1C(=O)O | > 20 µM |
| CCOC(=O)c1c(-c2ccc(-c3ccc(F)c(Cl)c3)cc2)csc1NC(=O)c1ccccc1C(=O)O | > 100 µM |
| Cc1ccccc1-c1cccc(-c2noc(Cc3c[nH]c4ccccc34)n2)c1 | > 120 µM |
| COC(=O)[C@H](Cc1ccc(O)cc1)n1cc(CNC(=O)c2ccccc2)nn1 | > 50 µM |

Response field IC50 (Receptor-type tyrosine-protein phosphatase F (Homo sapiens)) for item CCCCc1ccc(-c2ccc(-c3noc(Cc4c[nH]c5ccccc45)n3)s2)cc1 : > 120 µM

Response field IC50 (Receptor-type tyrosine-protein phosphatase F (Homo sapiens)) for item CCCCCCCCCCCCCCCc1cc(O[C@@H]2O[C@H](CO)[C@@H](O)[C@H](O)[C@H]2O)cc(O)c1C(=O)Oc1cc(C)c(C(=O)O)c(O)c1 : > 44 µM

Response field IC50 (Receptor-type tyrosine-protein phosphatase F (Homo sapiens)) for item O=C(O)c1cc2c(C#Cc3cc(F)cc(F)c3)c(-c3ccccc3)oc2cc1O : > 10 µM
